- protocol_description: Acute toxicity in mice (p.o., 14 days observation)
- protocol_conditions: mouse, in vivo, po
The following compounds are shown together with reported LD50 at 336 h values.
readout: LD50 at 336 h

* COc1cccc(Cc2cnc(N)nc2N)c1 [Example 2] | ~410 mg/kg
* COc1cc(Cc2cnc(N)nc2N)cc(OC)c1 [Example 3] | ~800 mg/kg
* COc1cc(Cc2cnc(N)nc2N)ccc1OCc1ccccc1 [Example 11] | > 2000 mg/kg
* COCCOc1ccc(Cc2cnc(N)nc2N)cc1OC [Example 10] | < 500 mg/kg
* COc1ccc(Cc2cnc(N)nc2N)c(OC)c1 [Example 4] | ~2000 mg/kg
* CCCCOc1ccc(Cc2cnc(N)nc2N)cc1OC [Example 9] | > 2000 mg/kg
* Nc1ncc(Cc2ccc3c(c2)OCO3)c(N)n1 [Example 6] | ~750 mg/kg
* C=CCOc1ccc(Cc2cnc(N)nc2N)cc1OC.Cl [Example 8] | ~1500 mg/kg
* COc1cccc(Cc2cnc(N)nc2N)c1OC [Example 5] | ~500 mg/kg
* COc1ccc2c(c1)c(CC(=O)O)c(C)n2C(=O)c1ccc(Cl)cc1 [Indomethacin, reference compound] | 22.5 mg/kg
* Br.COc1cc(Cc2cnc(N)nc2N)ccc1O [Example 12] | > 2000 mg/kg
* CCOc1ccc(Cc2cnc(N)nc2N)cc1OC [Example 7] | ~350 mg/kg
* COc1ccc(Cc2cnc(N)nc2N)cc1 [Example 1] | ~350 mg/kg

----------
- System: granulocytes
- protocol_description: Measurement of chemiluminescence of granulocytes (PHA-stimulated, luminol)
- Assay type: cell-based, human (healthy volunteers)
- protocol_conditions: Homo sapiens, 0.25 h; PHA 10 μg/ml stimulation, luminol 32 μM, 37° C., 15 min; read-out: IC50, chemiluminescence of granulocytes
pIC50: −log10 of the molar value.
The following compounds are shown together with reported pIC50 values.
readout: pIC50

* CCCCC1C(=O)N(c2ccccc2)N(c2ccccc2)C1=O [Phenylbutazone, reference compound] | 4.00
* CCCCOc1ccc(Cc2cnc(N)nc2N)cc1OC [Example 9] | ~6.00
* CN1C(C(=O)Nc2ccccn2)=C(O)c2ccccc2S1(=O)=O [Piroxicam, reference compound] | 4.00
* COc1cccc(Cc2cnc(N)nc2N)c1 [Example 2] | ~4.00
* COc1ccc(Cc2cnc(N)nc2N)cc1 [Example 1] | ~4.00
* C=CCOc1ccc(Cc2cnc(N)nc2N)cc1OC.Cl [Example 8] | ~6.00
* CCOc1ccc(Cc2cnc(N)nc2N)cc1OC [Example 7] | ~6.00

----------
- Test system: granulocytes
- protocol_description: Measurement of chemiluminescence of granulocytes (PHA-stimulated, luminol)
- Assay type: cell-based, human (healthy volunteers)
- protocol_conditions: Homo sapiens, 0.25 h, read-out: IC50, chemiluminescence of granulocytes
- Experimental: The test-compounds were dissolved in dimethyl-sulfoxide (DMSO) in a concentration of 10^-1 M, dilutions were made in the incubation medium employed. Heparinized blood (10 IU/ml) was taken from healthy volunteers. […] The Luminol solution (500 μl) was measured in plastic vials and put in dark (37° C.). […] The vials were continuously and gently shaken and the PHA stimulation was measured in every 2,5 min. for 15 min. in a Beckmann LS-100 spectrometer (coincidence switched off). […]
pIC50: −log10 of the molar value.
readout: pIC50

- COc1ccc2c(c1)c(CC(=O)O)c(C)n2C(=O)c1ccc(Cl)cc1 [Indomethacin, reference compound]: 4.00
